# credit: ChEMBL document CHEMBL1201862

Each item that follows carries a reported GI50.
System: A549
Assay: NCI tumour cell line growth inhibition, 48 h
Calls of active or inactive are those of the source. Cut-off read from the data, not from the text of the source: active = GI50 up to about 1.1 µM and inactive = higher. Non-standard residues stand in square brackets, D forms with d. Residues, ends and D or L forms follow the SMILES beside them. β3hI = CC[CH](C)[CH](N)CC(=O)O

{"Compound": "O=CN/C=C/c1cccc(O)c1", "GI50": "54.5 µM (inactive)"}
{"Compound": "Nc1nc2c(ncn2C2OC(CO)C(O)C2N)c(=O)[nH]1 (centres undefined)", "GI50": "97.1 µM (inactive)"}
{"Compound": "Cc1cc(C2(c3cc(C)c(O)c(C(=O)O)c3)OS(=O)(=O)c3ccccc32)cc(C(=O)O)c1O", "GI50": "> 100 µM (inactive)"}
{"Compound": "COc1ccc(CCN2CCN(CCCc3ccccc3)CC2)cc1", "GI50": "> 100 µM (inactive)"}
{"Compound": "CCC(C)C(CC(=O)N1CCCC1C(=O)NC(C(=O)NC(C(=O)NCC(=O)NC(CC(N)=O)C(=O)NC(C(=O)NC(C(=O)NC(CCCCN)C(N)=O)C(C)CC)C(C)CC)C(C)C)C(C)CC)NC(=O)C(N)C(C)CC (stereo not drawn) (H-I[β3hI]PIVGNIIK-NH2; configuration not given here)", "GI50": "> 50 µM (inactive)"}
{"Compound": "CCOC(=O)Oc1ccc(C(CNC(C)C)OC(=O)OCC)cc1OC(=O)OCC (centres undefined)", "GI50": "> 100 µM (inactive)"}
{"Compound": "Cc1ccc(S(=O)(=O)c2ccc(NC(=O)SCCC(=O)O)cc2)cc1", "GI50": "> 100 µM (inactive)"}
{"Compound": "c1cc2nnc1SCCSCCSc1ccc(nn1)SCCSCCS2", "GI50": "> 100 µM (inactive)"}
{"Compound": "COc1ccc(NC(C)=O)cc1N1C(=O)/C(=C\\c2cccc(Oc3ccccc3)c2)S(=O)(=O)C1c1ccccc1 (centres undefined)", "GI50": "62.8 µM (inactive)"}

====

Tested on: OVCAR-4
Assay: NCI tumour cell line growth inhibition, 48 h
Activity calls are given as the source filed them. Cut-off read from the data, not from the text of the source: active = GI50 up to about 1.1 µM and inactive = higher.
Readout name: GI50

{"Molecule": "O=c1[nH]nc(-c2ccccc2)n1/N=C/c1ccc([N+](=O)[O-])cc1", "Reported": "3.85 µM (inactive)"}
{"Molecule": "O=c1[nH]nc(-c2ccccc2)c2[nH]c3c(c12)Cc1ccccc1-3", "Reported": "3.79 µM (inactive)"}
{"Molecule": "N#C/C(=C\\c1c[nH]c2ccccc12)C(=O)c1ccc(O)c(O)c1", "Reported": "27.2 µM (inactive)"}
{"Molecule": "CC(=O)OC12CC(C)C3(O)C4C=C(C)C(=O)[C@@]4(O)CC(CO)=C[C@H]3C1C2(C)C (some centres undefined)", "Reported": "> 10 µM (inactive)"}
{"Molecule": "COc1ccc(-c2c(CN3CCOCC3)sc3nc4ccccc4n23)cc1", "Reported": "47.6 µM (inactive)"}
{"Molecule": "COC(=O)c1cc(C)ccc1CC(Cc1ccccc1C)C(=O)OC (centres undefined)", "Reported": "29.7 µM (inactive)"}
{"Molecule": "CC1CC(c2ccccc2)=Nc2ccccc2S1(=O)=O (centres undefined)", "Reported": "19 µM (inactive)"}
{"Molecule": "O=C1NC(S(=O)(=O)O)=NNC12c1ccccc1-c1ccccc12", "Reported": "> 10 µM (inactive)"}
{"Molecule": "CC(=O)OC1COC(N2CCc3cc([N+](=O)[O-])ccc32)C(OC(C)=O)C1OC(C)=O (centres undefined)", "Reported": "> 100 µM (inactive)"}
{"Molecule": "O=[N+]([O-])C(Cl)C(Cl)C(Cl)=C(Cl)Cl (centres undefined)", "Reported": "16.7 µM (inactive)"}
{"Molecule": "Oc1ccccc1/C=N/N1C(=S)N(c2ccccc2)C(=N\\c2ccccc2)/C1=N/c1ccccc1", "Reported": "1.27 µM (inactive)"}
{"Molecule": "CN(C)c1ccc(N2C(=S)SC(=N\\c3ccccc3)/C2=N/c2ccccc2)cc1", "Reported": "> 100 µM (inactive)"}
{"Molecule": "COc1ccc2c(c1)[n+]([O-])c(-c1ccc(Br)cc1)c(N)[n+]2[O-]", "Reported": "35.6 µM (inactive)"}
{"Molecule": "O=C(O)c1ccccc1/C=N/N=C1c2ccccc2-c2ccccc21", "Reported": "35.2 µM (inactive)"}

====

Tested on: HOP-62
Assay: NCI tumour cell line growth inhibition, 48 h
Active and inactive are the calls of the source. Rule as the data show it: active = GI50 up to about 1.1 µM and inactive = higher.

{"Molecule": "O=S(=O)(Nc1nc2ccccc2nc1N1CCCCCC1)c1ccccc1", "GI50": "23 µM (inactive)"}
{"Molecule": "Cc1ccc([N+](=O)[O-])c2c(NCC(O)CO)ccnc12 (stereo not given)", "GI50": "73.8 µM (inactive)"}
{"Molecule": "CN(C)C(=S)SCC(=O)Nc1ccccc1", "GI50": "> 100 µM (inactive)"}
{"Molecule": "Cc1nnc(N2C(=O)C(=Cc3ccc(Cl)cc3)N=C2c2ccc(Cl)cc2)nc1/C=C\\c1ccc(N(C)C)cc1", "GI50": "> 100 µM (inactive)"}
{"Molecule": "Oc1c(Br)cc(Br)cc1CN(Cc1cc(Br)cc(Br)c1O)C1CCCCC1", "GI50": "24.4 µM (inactive)"}

====

Test system: BT-549
Experiment: NCI tumour cell line growth inhibition, 48 h
Activity calls are given as the source filed them. No stated cut-off is given here; in the data, active = GI50 up to about 1.1 µM and inactive = higher. *1 amine or outer side, *2 acyl side, *3 side chain or, on linkers, in order; H or OH if unused. Where a SMILES comes first, the peptide text is derived from it. Bridges are numbered along the chain shown (N, C = ends). [ ]: non-standard residue; d: D form. ξ: configuration not given here. X10 = CCC(C)C(N[*:1])C(O)CC(=O)O[C@H](C(=O)C(C)C(=O)[*:2])C(C)C; NMeY = CN[C@@H](Cc1ccc(O)cc1)C(=O)O; ξNMeL = CNC(CC(C)C)C(=O)O; ξT = CC(O)C(N)C(=O)O
Outcome codes: class 1 = active, class 0 = inactive

{"Molecule": "CC(=O)/C=N/CC(=O)O", "Assayed system": "BT-549", "Class": "class 0"}
{"Molecule": "CC1(CC2=C(C(=O)NCCO[Si](C)(C)C(C)(C)C)C3(OCCO3)C2=O)OCCO1", "Assayed system": "BT-549", "Class": "class 0"}
{"Molecule": "CCC(C)C1NC(=O)C(NC(=O)C(CC(C)C)N(C)C(=O)[C@@H]2CCCN2)C(C)OC(=O)[C@H](Cc2ccc(OC)cc2)N(C)C(=O)[C@@H]2CCCN2C(=O)[C@H](CC(C)C)NC(=O)C(C)C(=O)[C@H](C(C)C)OC(=O)CC1O (stereo not given in full) (H-P[ξNMeL][ξT][X10]LP[NMeY](Me); ester 3-C)", "Assayed system": "BT-549", "Class": "class 1"}
{"Molecule": "CC[C@H](NC1=C(Cl)C(=O)c2c(O)ccc(O)c2C1=O)C(=O)OC", "Assayed system": "BT-549", "Class": "class 0"}
{"Molecule": "CSC1=C(C)C(/C=N/Nc2ccc([N+](=O)[O-])cc2)=C(C)N(c2ccccc2)S1(=O)=O", "Assayed system": "BT-549", "Class": "class 0"}
{"Molecule": "O=C1C=CC(=C(c2ccccc2)c2ccc(O)cc2)C=C1", "Assayed system": "BT-549", "Class": "class 0"}
{"Molecule": "CC(C)c1ccc(/C=C2\\N=C(c3ccc([N+](=O)[O-])cc3)OC2=O)cc1", "Assayed system": "BT-549", "Class": "class 0"}
{"Molecule": "COc1cccc(C(=O)N[C@@H]2[C@H](O)[C@@H](CO)O[C@H]2n2cnc3c(N)ncnc32)c1", "Assayed system": "BT-549", "Class": "class 0"}
{"Molecule": "COc1ccc(/C=C2\\CCC(CNc3ccc(S(N)(=O)=O)cc3)C2=O)cc1 (stereo not given)", "Assayed system": "BT-549", "Class": "class 0"}
{"Molecule": "COc1cc(OC)c2c(c1-c1ccc(C)cc1)CC(C)N(Cc1ccccc1)[C@H]2C (stereo not given in full)", "Assayed system": "BT-549", "Class": "class 0"}

====

Test system: SF-295
Assay: NCI tumour cell line growth inhibition, 48 h
Activity calls are given as the source filed them. Rule as the data show it: active = GI50 up to about 1.1 µM and inactive = higher.
Each item that follows carries a reported GI50.
Readout name: GI50

{"Compound": "CC(=O)C1=C(C)Cn2c(=O)c3ccccc3c(=O)n2C1", "Reported": "> 100 µM (inactive)"}
{"Compound": "O=c1c(-c2ccccc2)c(SCCO)n(-c2ccccc2)c(=S)n1-c1ccccc1", "Reported": "> 100 µM (inactive)"}
{"Compound": "CC(C)c1cccc(C(C)C)c1NC(=O)C(=O)CC(=O)CC(c1ccccc1)c1c(O)oc2ccccc2c1=O (configuration not stated)", "Reported": "> 100 µM (inactive)"}
{"Compound": "COc1ccc(NC(C)=O)cc1N1C(=O)/C(=C\\c2cccc(Oc3ccccc3)c2)S(=O)(=O)C1c1ccccc1 (configuration not stated)", "Reported": "53.1 µM (inactive)"}
{"Compound": "COc1cc(Oc2nc3c(N)cc(C(F)(F)F)cc3nc2-c2ccccc2)cc(OC)c1OC", "Reported": "1.95 µM (inactive)"}
{"Compound": "CN(C)CCCN1c2ccc([N+](=O)[O-])cc2CCc2cccc([N+](=O)[O-])c21", "Reported": "15 µM (inactive)"}
{"Compound": "COc1ccc(/C=C/C(=O)CC(=O)/C=C/c2ccc(OC)cc2)cc1", "Reported": "27.9 µM (inactive)"}
